Recorded values, source ChEMBL document CHEMBL1121982.

# System tested: Mu-type opioid receptor (Cavia porcellus)
# Protocol notes: Sensitivity to naloxone against Opioid receptor mu 1 in the guinea pig ileum assay
# Format: functional, tissue-based
Metric name: Ke (nM)
Respond numerically; units are nM and should not be typed.

>  <Query smiles>
CC(=O)O.CCC[C@@H](NC(=O)[C@@H](N)Cc1ccc(O)cc1)C(=O)NCC(=O)N[C@@H](Cc1ccccc1)C(=O)N[C@@H](CC(C)C)C(N)=O

>  <Value reported>
0.227

$$$$
>  <Query smiles>
CC(=O)O.CC(C)C[C@@H]1NC(=O)[C@H](Cc2ccccc2)NC(=O)CNC(=O)[C@H](NC(=O)[C@@H](N)Cc2ccc(O)cc2)CNC1=O

>  <Value reported>
0.275

$$$$
>  <Query smiles>
CC(C)C[C@@H]1NC(=O)[C@@H](Cc2ccccc2)NC(=O)CNC(=O)[C@H](NC(=O)[C@@H](N)Cc2ccc(O)cc2)CCNC1=O

>  <Value reported>
0.122

$$$$

Consider the molecule CN1CC[C@]23CCCC[C@H]2[C@H]1Cc1ccc(O)cc13 and give its measured Ke.
0.127

---

# System tested: Mu-type opioid receptor (Rattus norvegicus, UniProt P33535)
# Sequence (P33535 whole entry): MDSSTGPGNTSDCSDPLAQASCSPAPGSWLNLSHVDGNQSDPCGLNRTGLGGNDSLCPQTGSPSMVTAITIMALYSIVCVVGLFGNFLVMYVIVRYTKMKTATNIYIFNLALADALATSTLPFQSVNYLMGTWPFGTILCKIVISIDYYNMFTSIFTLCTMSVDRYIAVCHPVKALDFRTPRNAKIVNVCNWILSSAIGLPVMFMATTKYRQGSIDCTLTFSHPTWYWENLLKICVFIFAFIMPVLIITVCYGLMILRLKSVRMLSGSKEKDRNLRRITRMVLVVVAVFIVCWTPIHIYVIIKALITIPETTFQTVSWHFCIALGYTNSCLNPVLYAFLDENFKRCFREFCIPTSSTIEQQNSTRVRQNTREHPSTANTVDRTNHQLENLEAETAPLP
# Protocol notes: Inhibition of binding of [3H]naloxone to Opioid receptor mu 1 in the rat brain homogenate
# Format: tissue-based
Measured IC50, listed per entry.
Lab book: enter the figure in nM, no units written.

Illustrative cases are given below, each with its answer.
>  <Query smiles>
CC(=O)O.CCC[C@@H](NC(=O)[C@@H](N)Cc1ccc(O)cc1)C(=O)NCC(=O)N[C@@H](Cc1ccccc1)C(=O)N[C@@H](CC(C)C)C(N)=O

>  <System tested>
Mu-type opioid receptor (Rattus norvegicus, UniProt P33535)

>  <Result units>
nM

>  <IC50>
5.89

$$$$
>  <Query smiles>
CC(=O)O.CC[C@@H](NC(=O)[C@@H](N)Cc1ccc(O)cc1)C(=O)NCC(=O)N[C@@H](Cc1ccccc1)C(=O)N[C@@H](CC(C)C)C(N)=O

>  <System tested>
Mu-type opioid receptor (Rattus norvegicus, UniProt P33535)

>  <Result units>
nM

>  <IC50>
10.1

$$$$

Please turn your attention to the following entry.
Give its IC50 value. Item: CC(=O)O.CC(C)C[C@H]1NC(=O)[C@H](Cc2ccccc2)NC(=O)CNC(=O)[C@H](NC(=O)[C@@H](N)Cc2ccc(O)cc2)CCCCNC1=O
8.51
